- measured.target: human adenosine A2A receptor (Homo sapiens)
- Construct: expressed in transfected cells; host or cells: CHO cells, Semliki Forest virus expression system; membrane preparation
- Sequence (P29274 whole entry): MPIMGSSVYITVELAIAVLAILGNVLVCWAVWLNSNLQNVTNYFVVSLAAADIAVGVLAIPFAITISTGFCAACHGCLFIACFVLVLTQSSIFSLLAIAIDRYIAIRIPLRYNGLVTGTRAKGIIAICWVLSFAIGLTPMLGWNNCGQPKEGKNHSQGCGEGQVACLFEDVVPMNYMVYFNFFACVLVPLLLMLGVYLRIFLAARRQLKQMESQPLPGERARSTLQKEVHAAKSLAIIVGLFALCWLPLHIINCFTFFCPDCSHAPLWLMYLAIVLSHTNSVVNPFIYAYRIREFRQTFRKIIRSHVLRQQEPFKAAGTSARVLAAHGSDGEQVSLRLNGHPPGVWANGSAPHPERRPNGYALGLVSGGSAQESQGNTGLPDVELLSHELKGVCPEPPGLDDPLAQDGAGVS
- experiment.summary: Human adenosine A2A receptor [3H]-SCH-58261 binding assay
- measurement.conditions: ratio KiHA1 divided by KiHA2A
recorded.endpoint: selectivity (A1/A2a)

Sample records with selectivity (A1/A2a):
- Nc1cc(C(=O)N2CCCCCCC2)cc2nc(-c3ccccn3)nn12: 21.4
- COCCN(C)C(=O)c1cc(N)n2nc(-c3ccc(Br)o3)nc2c1: 44

Ask: Please report the recorded selectivity (A1/A2a) for `CCN(C(=O)c1cc(N)n2nc(-c3ccccn3)nc2c1)C(C)C` .
Reply: 15.8

###

- measured.target: HA1 adenosine receptor (Homo sapiens)
- Sequence (P30542 1-326): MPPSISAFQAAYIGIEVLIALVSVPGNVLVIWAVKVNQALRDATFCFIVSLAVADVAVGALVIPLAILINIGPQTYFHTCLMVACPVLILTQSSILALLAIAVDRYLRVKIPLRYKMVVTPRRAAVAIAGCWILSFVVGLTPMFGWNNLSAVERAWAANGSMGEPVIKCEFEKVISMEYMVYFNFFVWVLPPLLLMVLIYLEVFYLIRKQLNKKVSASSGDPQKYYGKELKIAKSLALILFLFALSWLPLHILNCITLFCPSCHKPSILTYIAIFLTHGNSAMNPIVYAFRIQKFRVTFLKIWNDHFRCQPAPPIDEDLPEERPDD
- experiment.summary: Human adenosine A1 receptor affinity (Ki hA1)
- Format: binding
Categories are assigned from the measured Ki using these intervals: bucket A = under 700 nM, bucket B = from 700 nM up to 1000 nM, bucket C = 1000 nM and over

Some solved cases for reference:
• COC[C@@H]1CCCN1C(=O)c1cc(N)n2nc(-c3ccc(Br)o3)nc2c1 = bucket A
• Nc1cc(C(=O)N2CCCC3CCCCC32)cc2nc(-c3nccs3)nn12 (stereo not drawn) = bucket A
• COC[C@H]1CCCN1C(=O)c1cc(N)n2nc(-c3ccc(Br)o3)nc2c1 = bucket A
• Nc1cc(C(=O)N2CCCCCCC2)cc2nc(-c3ccccn3)nn12 = bucket A
• CCN(CCOC)C(=O)c1cc(N)n2nc(-c3nccs3)nc2c1 = bucket C

Ask: # bin label for `C#CCN(C)C(=O)c1cc(N)n2nc(-c3ccccn3)nc2c1`
Reply: bucket C

Ask: Same for CCN(CC)C(=O)C1CCCN(C(=O)c2cc(N)n3nc(-c4nccs4)nc3c2)C1 (stereo not drawn)
Reply: bucket C

Ask: Same for `CCCN(CC1CC1)C(=O)c1cc(N)n2nc(-c3ccccn3)nc2c1`
Reply: bucket B

Ask: Same for NC(=O)C1CCCN(C(=O)c2cc(N)n3nc(-c4ccc(Br)o4)nc3c2)C1 (stereo not drawn)
Reply: bucket A

Ask: Same for `CCCN(CCC)C(=O)c1cc(N)n2nc(-c3ccccn3)nc2c1`
Reply: bucket C

Ask: Same for CCC1CCC(C)N(C(=O)c2cc(N)n3nc(-c4ccc(Br)o4)nc3c2)C1 (stereo not drawn)
Reply: bucket A

Ask: Same for NC(=O)[C@@H]1CCCN1C(=O)c1cc(N)n2nc(-c3ccc(Br)o3)nc2c1 [Example 389]
Reply: bucket A

Ask: Same for `CCCCN(CCC)C(=O)c1cc(N)n2nc(-c3ccccn3)nc2c1`
Reply: bucket C

Ask: Same for CCC1CCC(C)N(C(=O)c2cc(N)n3nc(-c4nccs4)nc3c2)C1 (stereo not drawn)
Reply: bucket C

Ask: Same for `CCN(C(=O)c1cc(N)n2nc(-c3ccccn3)nc2c1)C(C)C`
Reply: bucket B
